# credit: patent US8258175B2

Parameter IC50: see the listing below.
Molecular target: MDM2-p53 interaction (Homo sapiens)
Construct: made in house; host or cells: in vitro translation (cell-free)
Sequence (Q00987 whole entry): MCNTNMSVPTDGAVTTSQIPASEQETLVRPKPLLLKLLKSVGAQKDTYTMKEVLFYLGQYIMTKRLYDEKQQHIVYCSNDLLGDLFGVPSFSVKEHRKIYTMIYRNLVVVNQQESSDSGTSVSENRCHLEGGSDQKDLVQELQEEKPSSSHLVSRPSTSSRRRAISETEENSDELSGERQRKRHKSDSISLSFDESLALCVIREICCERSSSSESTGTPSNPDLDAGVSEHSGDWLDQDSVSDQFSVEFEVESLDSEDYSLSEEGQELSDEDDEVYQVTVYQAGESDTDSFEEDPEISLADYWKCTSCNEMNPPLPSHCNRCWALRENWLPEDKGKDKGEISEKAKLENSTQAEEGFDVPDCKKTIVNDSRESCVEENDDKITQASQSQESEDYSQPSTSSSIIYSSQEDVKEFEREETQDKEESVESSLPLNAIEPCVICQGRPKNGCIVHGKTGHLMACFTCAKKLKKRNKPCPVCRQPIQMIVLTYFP
Experiment: ELISA assay of MDM2-p53 complex formation (MDM2 binding to immobilised IP3 p53-derived peptide)
Conditions: n=3 independent determinations; 5% DMSO; interpolated from three standard concentrations
Enter your answer as a number in µM; do not include the unit.

INSERT INTO results (compound, numeric_value) VALUES
  ('COc1cc(COC2(c3ccc(OCOCC[Si](C)(C)C)cc3)c3ccccc3C(=O)N2Cc2ccccc2)cc(OC)c1O (centres unmarked)', 257);

Q) What value of IC50 has been recorded for this entry: O=C1c2ccccc2C(OCCN2CCNCC2)(c2ccccc2)N1Cc1ccccc1 (centres unmarked)
A) 315

Q) Repeat for the following compound: CCCN1C(=O)c2ccccc2C1(OCc1ccc(OC)c(O)c1)c1ccc(Cl)cc1 (centres unmarked)
A) 9.5

Q) Repeat for the following compound: CCCN1C(=O)c2ccccc2C1(OCCCO)c1ccc(OCOCC[Si](C)(C)C)cc1 (centres unmarked)
A) 476
